# key: entry, value: % Inhibition at 1 μM at Melanocortin Receptor 1
# measurement target: MC1-R (Mus musculus)
# Construct: membranes prepared from hMC3-R, hMC4-R, hMC5-R, and B-16 mouse melanoma cells (containing MC1-R); endogenous in cells; host or cells: B-16 mouse melanoma cells (membranes)
# Sequence (Q01727 whole entry): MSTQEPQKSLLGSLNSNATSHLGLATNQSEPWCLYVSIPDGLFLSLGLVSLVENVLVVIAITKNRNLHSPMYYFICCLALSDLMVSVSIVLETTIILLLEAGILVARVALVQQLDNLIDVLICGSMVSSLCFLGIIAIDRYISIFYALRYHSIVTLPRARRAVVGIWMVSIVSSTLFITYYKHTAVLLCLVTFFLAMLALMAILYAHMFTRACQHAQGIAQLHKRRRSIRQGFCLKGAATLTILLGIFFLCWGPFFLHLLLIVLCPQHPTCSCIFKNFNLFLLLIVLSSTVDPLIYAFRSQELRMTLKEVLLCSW
# test name: competitive inhibition binding assay, 125I-NDP-alpha-MSH, B-16 mouse melanoma cell membranes
# experimental conditions: 1 μM test peptide; 0.4 nM 125I-NDP-alpha-MSH; B-16 mouse melanoma cell membranes
Square brackets hold non-standard residues; d marks the D form. Ends that are not written are not given here. Nle = CCCC[C@H](N)C(=O)O
endpoint label: % Inhibition at 1 μM at Melanocortin Receptor 1

[[record]]
substance = "Ac-Ser-Tyr-Ser-Nle-Glu-His-Phe-Arg-Trp-Gly-Cys-Lys-Pro-Val-NH2 (Ac-SYS[Nle]EHFRWGCKPV-NH2; not fully specified (bridges); printed as Ac-Ser-Tyr-Ser-Nle-Glu-His-Phe-Arg-Trp-Gly-Cys-Lys-Pro-Val-NH2; numbers in words are those of the source; also: oxorhenium(V) N3S1 chelate (Re(V)=O)) [1-4]"
recorded_value = "72%"

[[record]]
substance = "Tyr-Val-Nle-Gly-His-D-Phe-Arg-Trp-Asp-Cys-Arg-Phe-NH2 (YV[Nle]GH[dF]RWDCRF-NH2; also: Re complex) [3-3]"
recorded_value = "99%"

[[record]]
substance = "Tyr-Val-Nle-Cys-Gly-His-D-Phe-Arg-Trp-Asp-Arg-Phe-NH2 (YV[Nle]CGH[dF]RWDRF-NH2; not fully specified (bridges); printed as Tyr-Val-Nle-Cys-Gly-His-D-Phe-Arg-Trp-Asp-Arg-Phe-NH2; numbers in words are those of the source; also: oxorhenium(V) N3S1 chelate complex (Re=O)) [3-10]"
recorded_value = "84%"

[[record]]
substance = "Tyr-Val-Nle-Gly-His-D-Phe-Cys-Trp-Asp-Arg-Phe-NH2 (YV[Nle]GH[dF]CWDRF-NH2; numbers in words are those of the source; also: oxorhenium(V) N3S1 chelate complex (Re=O)) [5-5]"
recorded_value = "67%"

[[record]]
substance = "Tyr-Val-Nle-Cys-Gly-His-Phe-Arg-Trp-Asp-Arg-Phe-NH2 (YV[Nle]CGHFRWDRF-NH2; not fully specified (bridges); printed as Tyr-Val-Nle-Cys-Gly-His-Phe-Arg-Trp-Asp-Arg-Phe-NH2; numbers in words are those of the source; also: oxorhenium(V) N3S1 chelate (Re=O) with Cys) [4-9]"
recorded_value = "1%"

[[record]]
substance = "Tyr-Val-Nle-Gly-His-D-Phe-Arg-Trp-Asp-Cys-Phe-NH2 (YV[Nle]GH[dF]RWDCF-NH2; numbers in words are those of the source; also: oxorhenium(V) N3S1 chelate complex (Re=O)) [5-2]"
recorded_value = "95%"

[[record]]
substance = "Ac-Ser-Tyr-Ser-Nle-Glu-His-Phe-Arg-Trp-D-Cys-Gly-Lys-Pro-Val-NH2 (chain 1 Ac-SYS[Nle]EHFRW; chain 2 [dC]GKPV-NH2; not fully specified (bridges); numbers in words are those of the source; also: oxorhenium(V) N3S1 chelate (Re(V)=O)) [2-5]"
recorded_value = "43%"

[[record]]
substance = "Tyr-Val-Nle-Gly-His-Cys-Phe-Arg-Trp-Asp-Arg-Phe-NH2 (YV[Nle]GHCFRWDRF-NH2; numbers in words are those of the source; also: oxorhenium(V) N3S1 chelate (Re=O) with Cys) [4-7]"
recorded_value = "−4%"

[[record]]
substance = "Ac-Ser-Tyr-Ser-Nle-Glu-His-Phe-Arg-Cys-Trp-Gly-Lys-Pro-Val-NH2 (Ac-SYS[Nle]EHFRCWGKPV-NH2; not fully specified (bridges); printed as Ac-Ser-Tyr-Ser-Nle-Glu-His-Phe-Arg-Cys-Trp-Gly-Lys-Pro-Val-NH2; numbers in words are those of the source; also: oxorhenium(V) N3S1 chelate (Re(V)=O)) [1-6]"
recorded_value = "29%"

[[record]]
substance = "Tyr-Val-Nle-Gly-His-Phe-Arg-Cys-Trp-Asp-Arg-Phe-NH2 (YV[Nle]GHFRCWDRF-NH2; numbers in words are those of the source; also: oxorhenium(V) N3S1 chelate (Re=O) with Cys) [4-5]"
recorded_value = "89%"

[[record]]
substance = "Ac-Ser-Tyr-Ser-Nle-Glu-His-Phe-Cys-Arg-Trp-Gly-Lys-Pro-Val-NH2 (Ac-SYS[Nle]EHFCRWGKPV-NH2; not fully specified (bridges); printed as Ac-Ser-Tyr-Ser-Nle-Glu-His-Phe-Cys-Arg-Trp-Gly-Lys-Pro-Val-NH2; numbers in words are those of the source; also: oxorhenium(V) N3S1 chelate (Re(V)=O)) [1-7]"
recorded_value = "68%"

[[record]]
substance = "Tyr-Val-Nle-Gly-His-Phe-Arg-Trp-Asp-Arg-Phe-Cys-NH2 (GHFRWDRFC; N-terminal Tyr-Val-Nle; C-terminal amide; printed: Gly-His-Phe-Arg-Trp-Asp-Arg-Phe-Cys-) [4-1]"
recorded_value = "56%"

[[record]]
substance = "Tyr-Val-Nle-Gly-His-D-Phe-Arg-Cys-Asp-Arg-Phe-NH2 (YV[Nle]GH[dF]RCDRF-NH2; numbers in words are those of the source; also: oxorhenium(V) N3S1 chelate complex (Re=O)) [5-4]"
recorded_value = "86%"


These entries and their values trace back to patent US7351690B2.
